Experimental protocol: protease stability score; higher = more stable; yeast display proteolysis, trypsin and chymotrypsin;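 note: relative to predicted unfolded state with 0 unfolded-like and 1 meaning tenfold more protease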
Think of 1 as a floor: if protease stability score stands on it or above, it is MET; beneath it, NOT MET.

1. DDWEKLYEELTRLWLKLLITGDEEILIKLMDPHYRYHQGDKELHGRESYAEEVRREYEHARVKIHVERIHVFENHVEVNGELKIEINGRHYSIRTRIHLNIVNGKIKSIEIRTD | MET
2. DEDTKASELAIEILIKILLTGDEDSLNHLFDPNVRLEVGDKQMHGMESMVKFQRHWRVNHTIVKRMEIINIGDKMHIHLVGHINGDFNGKTSEHESHVHILNEKVNGRWLIRSMEIEIR | MET
3. DDLKEDADKYSDLEREARQTGDEDFISNLMDPNVLVLINGREIHGREDVLKWLVDLRRKLGVDRFRSEVEDKHIDVQGDKIRIHGILRLNFNGQHFRIDVHIIFQKVDGRWHVREERYH | MET
4. DDDRRSLEDWIKISIESMKTGDEDEFEHLADPNPRMVVGDKHLVGRERAVHVFREWRVKHMTVKDHPIIDGRIEMDTRVTVHFNGRDIELELRIIIHKVNGKWLVEEIIIK | NOT MET

As a next step, examine the sequence that follows.
Please indicate if the recorded protease stability score for SEIEEQVEEAYRLILEMLHTGDEHTMHELIDPHVRHRIDGQTYHGREFLIKWLVKLREDWGVEKISVKLKFITIIGDFALVVVDIHINGVKLKNHTLATKVNGRWRDHTVNIEHI meets or exceeds 1.
NOT MET

* * *

Entries annotated with measured protease stability score
Experimental protocol: protease stability score; higher = more stable; yeast display proteolysis, trypsin and chymotrypsin;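 note: relative to predicted unfolded state with 0 unfolded-like and 1 meaning tenfold more protease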

Below are worked cases with known answers.
1) SEDRESAKWFVEMELELFLTGDFEKRLHLADPNAKIRIEINGRKHSTHGMREFLEHLLRLGIDVSHVDHIQVENYNGKLEMNLNLDIRIDGQRRHVEIHIIVDKFDGRWVLRELKVNIR | 0.642
2) SEEKKAWKLSLELHRRYVETGNEEDLIRFLDPHVRLEFNGQQYVGWEEVIRIMEELGFDVLKEIRLHSLDFQGEYVEVDGEVNGNINGRDRDHRIKFRMLKVDGKWLNHSVHVI | 1.36
3) DHEEKKAKELLHLIVELLITGDEDTLSRLLDPNTRWIINGRHLHGMHVFEEWVRRLKEQYKGVTVHIEIEDSKVVGEKARSEIRLIINIGDKVHDIESRLEIVVIDGKMRSLRFEFK | 1.19
4) EHLIEELREMTERIVETILTGDEKHLADLADPNTRSHTHIGDKHYRFHGMDLIYELLHQVKNMRLHLRHTDASFVGNKVYVRLHIDLIFNGRDIHFTIHIIIDKYNGKWFIHHIELIFN | 1.31
5) LESEEDLREAIRILIEDLRTGDEDSLHNLLDPNVRIDVNGVKLHGMEWVSHTIRHLGVKHTYVINRRIKIQGNKVDIDGEFNLRYDGKEERRRITLHVQKIDGVWVIEEITIR | 0.971

Query (sequence): DEHEETMHWALEVIEEFLQTGDERLMEENLDPNVRLEYGDKILVGRELFLELLRRLVEKYKNIRINIHDIKLYDGRLYLDVELRYGDFRSTTRIFSEKYNGRWVDRSYHVE ; field requested: protease stability score
1.71
